target: CaBbc1; experiment: SPOT peptide array binding signal intensity (averaged, normalized) (arbitrary units (background-subtracted, floor 0; scale differs between SH3 domains)); higher = stronger binding of the SH3 domain to the peptide
measure.name: SPOT peptide array binding signal intensity

[
  {
    "binder": "HVRRSILALPLGVLL",
    "readout.relation": "=",
    "quantitative.result": 10
  },
  {
    "binder": "DHPKGPPPPPPPDEK",
    "readout.relation": "≤",
    "quantitative.result": 0
  },
  {
    "binder": "QQEQNTPPLPPKPKS",
    "readout.relation": "=",
    "quantitative.result": 9
  },
  {
    "binder": "QTMRQAPKRPDADVA",
    "readout.relation": "=",
    "quantitative.result": 942
  },
  {
    "binder": "NRARYLPQNPDIIAG",
    "readout.relation": "≤",
    "quantitative.result": 0
  },
  {
    "binder": "NMLSRPRLAKLPSIR",
    "readout.relation": "=",
    "quantitative.result": 165
  },
  {
    "binder": "ISRRRLPVIMHRLKM",
    "readout.relation": "=",
    "quantitative.result": 142
  }
]
